Target: OXA-48 (UniProt Q6XEC0)
Assay: β-lactamase enzyme inhibition assay, Class D oxacillinase
Conditions: read-out: OXA-48
observed.property: IC50

Asked: Given the entry `CCOC(=O)c1nnn(CC(=O)N[C@H]2Cc3cccc(C(=O)O)c3OB2O)c1C(=O)OCC` , report its measured IC50.
Given back: < 100 nM

Asked: Now this one: `NCc1cn(CCC(=O)N[C@H]2Cc3cccc(C(=O)O)c3OB2O)nn1`
Given back: 100 to 1000 nM

Asked: Now this one: `NCCCn1nnnc1CC(=O)N[C@H]1Cc2cccc(C(=O)O)c2OB1O`
Given back: 1000 to 10000 nM

Asked: Now this one: `O=C(Cn1cc(-c2ccsc2)nn1)N[C@H]1Cc2cccc(C(=O)O)c2OB1O`
Given back: 100 to 1000 nM

Asked: Now this one: `CNCc1nnn(CC(=O)N[C@H]2Cc3cccc(C(=O)O)c3OB2O)c1CO`
Given back: 100 to 1000 nM

Asked: Now this one: `NCCn1cc(CC(=O)N[C@H]2Cc3cccc(C(=O)O)c3OB2O)nn1`
Given back: 100 to 1000 nM

Asked: Now this one: `O=C(Cn1cc(CF)nn1)N[C@H]1Cc2cccc(C(=O)O)c2OB1O`
Given back: 100 to 1000 nM

Asked: Now this one: `NNC(=O)Cn1nnc(CC(=O)N[C@H]2Cc3cccc(C(=O)O)c3OB2O)n1`
Given back: < 100 nM

Asked: Now this one: `CC(C)NCc1cn(CC(=O)N[C@H]2Cc3cccc(C(=O)O)c3OB2O)nn1`
Given back: < 100 nM

Asked: Now this one: `NCCn1nnnc1CC(=O)N[C@H]1Cc2cccc(C(=O)O)c2OB1O`
Given back: 100 to 1000 nM

Asked: Now this one: `O=C(Cc1nnnn1CC1CCNCC1)N[C@H]1Cc2cccc(C(=O)O)c2OB1O`
Given back: 100 to 1000 nM

Asked: Now this one: `NCCc1nnn(CC(=O)N[C@H]2Cc3cccc(C(=O)O)c3OB2O)n1`
Given back: 100 to 1000 nM

Asked: Now this one: `O=C(Cn1cnnn1)N[C@H]1Cc2cccc(C(=O)O)c2OB1O`
Given back: < 100 nM

Asked: Now this one: `CC(C)NCCc1cn(CC(=O)N[C@H]2Cc3cccc(C(=O)O)c3OB2O)nn1`
Given back: 1000 to 10000 nM

Asked: Now this one: `N=CNCc1cn(CC(=O)N[C@H]2Cc3cccc(C(=O)O)c3OB2O)nn1`
Given back: 1000 to 10000 nM

Asked: Now this one: `O=C(Cn1nnc(CC(=O)N[C@H]2Cc3cccc(C(=O)O)c3OB2O)n1)N[C@H]1CCNC1`
Given back: 100 to 1000 nM

Asked: Now this one: `NCCSCc1cn(CC(=O)N[C@H]2Cc3cccc(C(=O)O)c3OB2O)nn1`
Given back: 100 to 1000 nM

Asked: Now this one: `O=C(Cn1cc(C2CNC2)nn1)N[C@H]1Cc2cccc(C(=O)O)c2OB1O`
Given back: 1000 to 10000 nM

Asked: Now this one: `CN(C)Cc1nnn(CC(=O)N[C@H]2Cc3cccc(C(=O)O)c3OB2O)c1CN(C)C`
Given back: 100 to 1000 nM

Asked: Now this one: `O=C(Cn1cc(-c2ccccn2)nn1)N[C@H]1Cc2cccc(C(=O)O)c2OB1O`
Given back: < 100 nM

Asked: Now this one: `NCCCn1nnc(CC(=O)N[C@H]2Cc3cccc(C(=O)O)c3OB2O)n1`
Given back: 1000 to 10000 nM

Asked: Now this one: `NC1CN(C(=O)c2cn(CC(=O)N[C@H]3Cc4cccc(C(=O)O)c4OB3O)nn2)C1`
Given back: 100 to 1000 nM

Asked: Now this one: N=C(N)NCC(O)Cc1cn(CC(=O)N[C@H]2Cc3cccc(C(=O)O)c3OB2O)nn1 (stereo partly shown)
Given back: 1000 to 10000 nM

Asked: Now this one: `CNCc1c(CO)nnn1CC(=O)N[C@H]1Cc2cccc(C(=O)O)c2OB1O`
Given back: 100 to 1000 nM

Asked: Now this one: `NCCn1cc(Cn2nnnc2CC(=O)N[C@H]2Cc3cccc(C(=O)O)c3OB2O)nn1`
Given back: 100 to 1000 nM

Asked: Now this one: `N=C(N)NCCn1nnnc1CC(=O)N[C@H]1Cc2cccc(C(=O)O)c2OB1O`
Given back: 1000 to 10000 nM

Asked: Now this one: `Nc1nc(=O)c(Cc2cn(CC(=O)N[C@H]3Cc4cccc(C(=O)O)c4OB3O)nn2)c(N)[nH]1`
Given back: < 100 nM

Asked: Now this one: `NC1CCN(C(=O)c2cn(CC(=O)N[C@H]3Cc4cccc(C(=O)O)c4OB3O)nn2)CC1`
Given back: 100 to 1000 nM

Asked: Now this one: `NCc1cnnn1CC(=O)N[C@H]1Cc2cccc(C(=O)O)c2OB1O`
Given back: 100 to 1000 nM

Asked: Now this one: `COc1c(C[C@H](NC(=O)Cn2cc(CN)nn2)B(O)O)cccc1C(=O)O`
Given back: 1000 to 10000 nM

Asked: Now this one: `O=C(Cn1cc(CNCCO)nn1)N[C@H]1Cc2cccc(C(=O)O)c2OB1O`
Given back: 100 to 1000 nM

Asked: Now this one: `N=C(N)N1CC(c2cn(CC(=O)N[C@H]3Cc4cccc(C(=O)O)c4OB3O)nn2)C1`
Given back: 1000 to 10000 nM

Asked: Now this one: `O=C(Cn1cc(C(=O)N[C@H]2CCNC2)nn1)N[C@H]1Cc2cccc(C(=O)O)c2OB1O`
Given back: 100 to 1000 nM

Asked: Now this one: `Nc1nnc(CC(=O)N[C@H]2Cc3cccc(C(=O)O)c3OB2O)[nH]1`
Given back: 100 to 1000 nM
